test: clinical study, pharmacokinetics of Compound B; format: in vivo, human; conditions: human, blood, oral, 20 mg, administration alone, 20 mg (n = 8); read-out: AUCss, Mean ± SD
assay.metric: AUC (ng·h/mL)
Answer format: numeric, ng·h/mL implied, no suffix.

// sample CCN(CC)CCN1CCc2[nH]c(/C=C3\C(=O)Nc4ccc(F)cc43)c(C)c2C1=O [Compound B, famitinib malate] , its AUC was 1180

----------
Assay: clinical study, pharmacokinetics of Compound B
Type: in vivo, human
Details: human, blood, oral, co-administration with Compound A, 20 mg (n = 9); read-out: AUCss, Mean ± SD
Method: In the present disclosure, “AUC” refers to the area surrounded by the pharmacokinetic blood drug concentration curve versus time axis. […] Since the blood drug concentration in pharmacokinetic studies can only be observed up to a certain time point t, AUC can be expressed in the following two means: AUC (0-t) and AUC (0-∞), wherein AUC (0-t) is derived from the trapezoidal area, and AUC (0-∞) is calculated by the formula: AUC (0-∞)=AUC (0-t)+end point concentration/end point elimination rate. […]
assay.metric: AUC (ng·h/mL)
Answer format: numeric, ng·h/mL implied, no suffix.

// sample CCN(CC)CCN1CCc2[nH]c(/C=C3\C(=O)Nc4ccc(F)cc43)c(C)c2C1=O [Compound B, famitinib malate] , its AUC was 1360
